# STUDY_TARGET: Human 5-HT4(d) (Homo sapiens, UniProt Q13639)
# Construct: expressed in transfected cells
# Sequence (Q13639 1-360 isoform Q13639-3): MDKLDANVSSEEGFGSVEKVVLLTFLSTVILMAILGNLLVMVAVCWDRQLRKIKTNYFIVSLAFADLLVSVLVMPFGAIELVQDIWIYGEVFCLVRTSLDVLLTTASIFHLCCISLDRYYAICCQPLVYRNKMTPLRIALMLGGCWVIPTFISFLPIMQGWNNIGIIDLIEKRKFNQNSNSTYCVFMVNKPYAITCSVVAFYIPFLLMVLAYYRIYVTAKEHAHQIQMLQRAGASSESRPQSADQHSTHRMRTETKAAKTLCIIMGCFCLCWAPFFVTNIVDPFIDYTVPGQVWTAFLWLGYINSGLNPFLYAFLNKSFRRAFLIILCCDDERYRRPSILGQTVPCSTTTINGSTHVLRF
# PROCEDURE_SUMMARY: Agonist-induced cAMP elevation in human 5-HT4(d) transfected HEK293 cells
# Format: cell-based
# CONDITION_INFO: HEK293; cAMP production normalized to the amount produced by 1,000 nM serotonin
QUANTITY_MEASURED: Emax (%)

[[record]]
smiles_record = "O=C(O)C1(CN2CCC(COc3noc4cccc(OC5CCOCC5)c34)CC2)CCOCC1"
experimental_result = 71

[[record]]
smiles_record = "O=C(O)C1(CN2CCC(COc3noc4cccc(OCC5(CO)CCC5)c34)CC2)CCC1"
experimental_result = 50

[[record]]
smiles_record = "OC1(CN2CCC(COc3noc4cccc(O[C@H]5CC[C@H](O)CC5)c34)CC2)CCOCC1"
experimental_result = 44

[[record]]
smiles_record = "O=C(O)C1(CCN2CCC(COc3noc4cccc(OCC5CCC5)c34)CC2)CCOCC1"
experimental_result = 61

